- Tested on: T cells
- Assay text: T cell activation/proliferation
- Format: cell-based, murine
- Run parameters: with mitogen/anti-CD3
- Protocol: They were seeded into 96-well flat-bottom plates at varying cellular densities in a final volume of 100 μl. In control experiments, cells were cultured in medium containing 10% FCS or 3% human serum and 5×10^-5 M 2 ME. […] Cultures were carried out in duplicate. […] Cellular proliferation was determined by [^3 H] thymidine uptake (0.5 uCi/well; New England Nuclear, Boston, Mass.) after the incubation times indicated for each experiment with a 4 hour labeling pulse. […]
Value kind: substitution for retinol in T cell activation

Compound | Endpoint result
CC1=C(/C=C/C(C)=C/C=C/C(C)=C/C(=O)O)C(C)(C)CCC1 [all-trans retinoic acid] | not

Provenance of the data: patent US5908868A
